# assay.system: T1, recombinant ILT2 (human) (human, UniProt Q8NHL6 24-461)
# T1 construct: also called recombinant ILT2 peptide; ILT2 protein
# T1 sequence (Q8NHL6 24-461 limits assumed): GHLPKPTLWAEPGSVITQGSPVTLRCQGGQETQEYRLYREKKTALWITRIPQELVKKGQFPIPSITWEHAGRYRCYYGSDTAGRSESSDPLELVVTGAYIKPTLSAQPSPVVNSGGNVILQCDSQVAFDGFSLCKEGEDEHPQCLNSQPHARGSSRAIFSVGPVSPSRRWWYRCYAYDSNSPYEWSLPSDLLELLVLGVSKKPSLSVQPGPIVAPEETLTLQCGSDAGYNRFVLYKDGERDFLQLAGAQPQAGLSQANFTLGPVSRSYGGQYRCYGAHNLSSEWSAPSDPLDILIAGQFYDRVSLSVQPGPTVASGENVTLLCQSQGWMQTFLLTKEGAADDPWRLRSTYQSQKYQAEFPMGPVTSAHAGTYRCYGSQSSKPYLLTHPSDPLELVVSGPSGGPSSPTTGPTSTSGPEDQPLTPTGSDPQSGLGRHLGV
# test.name: SPR (Biacore T200); KD relative to Control (chimeric 15G8)
Reported Relative KD values for a set of binders
Just the number, please.

Answered cases to consult:
binder | recorded.measurement
humanized 15G8 VH1/Vk1 (antibody, IgG4, V domains shown, Humanized IgG4 (S228P, L235E), kappa; tested as supernatant of transiently transfected HEK EBNA cells) VH: DVQLQGSGPGLVKPSETLSLTCSVTGYSITSGYYWNWIRQFPGKKLEWMGYISYDGSNNYNPSLKNRITISRDTSKNQFSLKLNSVTAADTATYYCAHGYSYYYAMDAWGQGTSVTVSS VL: DIQMTQSTSSLSASVGDRVTITCRTSQDISNYLNWYQQKPGKAVKLLISYTSRLHSGVPSRFSGSGSGTDYTLTISSLQQEDFATYFCQQGNTLPTFGQGTKLEIK | 0.7
humanized 15G8 VH3/Vk3 (antibody, IgG4, V domains shown, Humanized IgG4 (S228P, L235E), kappa; tested as supernatant of transiently transfected HEK EBNA cells) VH: DVQLQGSGPGLVKPSETLSLTCSVTGYSITSGYYWNWIRQPPGKGLEWMGYISYDGSNNYNPSLKNRITISRDTSKNQFSLKLSSVTAADTATYYCAHGYSYYYAMDAWGQGTTVTVSS VL: DIQMTQSPSSLSASVGDRVTITCRTSQDISNYLNWYQQKPGKAVKLLISYTSRLHSGVPSRFSGSGSGTDYTLTISSLQPEDFATYYCQQGNTLPTFGQGTKLEIK | 0.72
15G8-53 (humanized 15G8, VH5/Vk3) (antibody, human IgG4 S228P, kappa, V domains shown, Humanized IgG4 (S228P, L235E), kappa) VH: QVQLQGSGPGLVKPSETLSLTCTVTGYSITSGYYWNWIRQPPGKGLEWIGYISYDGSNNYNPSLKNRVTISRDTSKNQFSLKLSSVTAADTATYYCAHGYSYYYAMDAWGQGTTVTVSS VL: DIQMTQSPSSLSASVGDRVTITCRTSQDISNYLNWYQQKPGKAVKLLISYTSRLHSGVPSRFSGSGSGTDYTLTISSLQPEDFATYYCQQGNTLPTFGQGTKLEIKR | 0.84
chimeric 15G8 antibody (antibody, V domains shown, Chimeric form of murine 15G8) VH: DVQLQGSGPGLVKPSQSLSLTCSVTGYSITSGYYWNWIRQFPGNKLEWMGYISYDGSNNYNPSLKNRISITRDTSKNQFFLKLNSVTSEDTATYYCAHGYSYYYAMDCWGQGTSVTVSS VL: DIQMTQTTSSLSASLGDRVTISCRTSQDISNYLNWYQQKPDGTVKLLISYTSRLHSGVPSRFSGSGSGTDYSLTISNLEQEDIATYFCQQGNTLPTFGSGTKLEIK | 1

Challenge: State its Relative KD: humanized 15G8 VH2/Vk1 (antibody, IgG4, V domains shown, Humanized IgG4 (S228P, L235E), kappa; tested as supernatant of transiently transfected HEK EBNA cells) VH: DVQLQGSGPGLVKPSETLSLTCSVTGYSITSGYYWNWIRQFPGKKLEWMGYISYDGSNNYNPSLKNRITISRDTSKNQFSLKLSSVTAADTATYYCAHGYSYYYAMDAWGQGTTVTVSS VL: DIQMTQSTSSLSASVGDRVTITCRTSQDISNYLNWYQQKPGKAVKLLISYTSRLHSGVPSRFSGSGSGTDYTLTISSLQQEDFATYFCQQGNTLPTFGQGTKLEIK
Response given: 0.76
